- TESTED_ON: Phospholipid hydroperoxide glutathione peroxidase GPX4 (Homo sapiens) (UniProt P36969)
- Sequence (P36969 whole entry, looked up): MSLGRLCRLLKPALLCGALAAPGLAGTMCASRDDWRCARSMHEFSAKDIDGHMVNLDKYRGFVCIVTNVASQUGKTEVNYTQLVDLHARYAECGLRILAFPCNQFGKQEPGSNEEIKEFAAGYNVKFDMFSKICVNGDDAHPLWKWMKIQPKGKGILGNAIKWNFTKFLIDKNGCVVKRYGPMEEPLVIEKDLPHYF
- TEST: Primary qHTS Assay for Inhibitors of Recombinant Selenoprotein Glutathione Peroxidase 4 (GPX4) (AID 1845192); also: nearly all actives have a fitted effect of over 65% in size
- CONDITIONS: recombinant GPX4, GR-coupled NADPH fluorescence, 15 min; series mostly up to 50 µM
Results filed as inconclusive are left out. Active and inactive are the calls of the source. Calls follow the shape of the dose curve; as a rule, active = well fitted inhibition curve with a large enough effect; inconclusive = small, poorly fitted or top-dose-only effect; inactive = flat fitted curve, though single readings scatter.
Write down the outcome that applies. Available outcomes: active, inactive

Worked examples, 2 compounds total:
{"COMPOUND": "CCn1c(N)c(C(=O)NC)c(=O)c2ccc(C#CC(C)(O)COC)nc21 (stereo not given)", "GROUP_LABEL": "inactive"}
{"COMPOUND": "CC1(C)SCCN(S(=O)(=O)c2ccc(Oc3ccncc3)cc2)[C@H]1C(=O)NO", "GROUP_LABEL": "inactive"}

Problem: Please indicate how the test categorized C/C(=C\Cc1c(O)c(Cl)c(C)c(C=O)c1O)CC/C=C(\C)[C@H]1CC(=O)C(C)(C)O1 .
Result: inactive

Problem: // outcome(item) with item = C/C(=C\CCC(C)C1=CCC2(C)OC3=C(CC12)C(=O)C(O)CC3)CO (stereo not given)
Result: inactive

Problem: Given O=C(NC1(c2ccccc2)CC1)c1c(CN2CCC(N3CCCCC3)CC2)c(-c2cccc(C(F)(F)F)c2)nc2cc(Br)ccc12 , state the outcome it received in this test.
Result: inactive

Problem: Record lookup: outcome of this test for COc1ccc(Sc2ccc(NC(=O)c3ccccc3Cl)cc2C#N)cc1 ?
Result: inactive

Problem: For C=CC1(C)CC(O)C(C(=C)C(=O)OC)C(O)C1C(=C)CO (stereo not given) , what call appears in the results of this test?
Result: inactive

Problem: Record request — test call for O=S(=O)(c1ccccc1)N(CC(F)(F)F)c1ccc(C(O)(C(F)(F)F)C(F)(F)F)cc1
Result: inactive

Problem: For COc1ccc(C2(CNC(=O)c3ccc(NC(=O)c4ccco4)cc3)CCOCC2)cc1 , what call appears in the results of this test?
Result: inactive

Problem: Query: recorded result category for Cc1cc(C)c(S(=O)(=O)n2cc(C)cc2C)c(C)c1 in this test
Result: inactive

====

- TEST: Primary qHTS for inhibitors of nuclear receptor binding SET domain protein 2 (NSD2) in an RCH-ACV wild type WT cells (2C) (AID 1645877); also: nearly all actives have a fitted effect of over 70% in size
- CONDITIONS: RCH-ACV (leukaemia line) NSD2 WT (2C) viability, CellTiter-Glo, 72 h; series mostly up to 44.9 µM
Results filed as inconclusive are left out. Calls of active or inactive are those of the source. Calls come from the whole dose curve; as a rule, active = well fitted inhibition curve with a large enough effect; inconclusive = small, poorly fitted or top-dose-only effect; inactive = no such curve, though single readings can be large or run the other way.
Form entry, call: pick from active, inactive

Worked examples, 5 compounds total:
{"COMPOUND": "CCOC(=O)N1c2ccc(C(F)(F)F)cc2C(N(Cc2cc(C(F)(F)F)cc(C(F)(F)F)c2)C(=O)OC)CC1CC (stereo not given)", "GROUP_LABEL": "inactive"}
{"COMPOUND": "C/C(=C\\CCC(C)C1=CCC2(C)OC3=C(CC12)C(=O)C(O)CC3)CO (stereo not given)", "GROUP_LABEL": "inactive"}
{"COMPOUND": "Nc1ncnc2c1nc(Cl)n2C1OC2COP(=O)(O)OC2C1O (stereo not given)", "GROUP_LABEL": "active"}
{"COMPOUND": "C=C1C(=O)O[C@@H]2C3=C(C)CCC[C@]3(C)CC[C@@]12O", "GROUP_LABEL": "active"}
{"COMPOUND": "COc1cc(/C=N\\NC(=O)c2ccc3c(c2)OCO3)ccc1OCc1ccccc1", "GROUP_LABEL": "inactive"}

Problem: Outcome logged for COc1cc(O)c2c(c1)C1OC1C[C@H](O)[C@H](O)C(=O)/C=C\C[C@H](C)OC2=O (stereo not given in full) in this assay:
Result: active

Problem: // param item: COc1cc2nc(N3CCN(C(=O)c4ccco4)C4CCCCC43)nc(N)c2cc1OC (stereo not given) ; yields the recorded call
Result: active

Problem: // param item: O=C(c1c(F)ccc(NS(=O)(=O)N2CC[C@@H](F)C2)c1F)c1c[nH]c2ncc(-c3cnc(C4CC4)nc3)cc12 ; yields the recorded call
Result: active

Problem: Hi, sorry to bother you, what did the test record for COc1c(C)cnc(Cn2cc(C#CCC(C)(C)O)c3c(Cl)nc(N)nc32)c1C ?
Result: active

Problem: Given CC(C)(C)c1ccc(C(=O)Nc2cn3cc(-n4ccnc4)ccc3n2)cc1 , state the outcome it received in this test.
Result: inactive

====

- System: Hek293T
- TEST: Primary qHTS to identify gynecologic anti-cancer compounds using libraries of approved drugs and bioactive compounds (AID 1345084); also: nearly all actives have a fitted effect of over 55% in size
- CONDITIONS: Gynecologic cancer cell panel viability, ATPlite luminescence, 48 h, control line for the selectivity index; series mostly up to 57.5 µM
Inconclusive results are not listed. The source made the active and inactive calls. The call rests on the fitted dose curve; in most records, active means well fitted cell-killing curve with a large enough effect; inconclusive means small, poorly fitted or top-dose-only effect, or effect the other way; inactive means flat fitted curve, though single readings scatter.
Can you answer with just one of these options? active, inactive

Problem: Call for entry CC(C)c1ccc(NC(=O)Cn2cnc3c2c(=O)n(C)c(=O)n3C)cc1 :
Result: inactive

Problem: Tell me the assay call for CCC(C)C(=O)OC1C(C)C2(O)C(C=C(CO)CC3(O)C(=O)C(C)=CC32)C2C(C)(C)C12OC(=O)C(C)C (stereo not drawn) please.
Result: inactive

Problem: Any idea what this test logged for OC[C@H]1O[C@@H](OC/C=C/c2ccc(O)cc2)[C@H](O)[C@@H](O)[C@@H]1O ?
Result: inactive

====

- Tested on: PA-1
- TEST: Primary qHTS to identify gynecologic anti-cancer compounds using libraries of approved drugs and bioactive compounds (AID 1345084); also: nearly all actives have a fitted effect of over 55% in size
- CONDITIONS: Gynecologic cancer cell panel viability, ATPlite luminescence, 48 h; series mostly up to 57.5 µM
Results filed as inconclusive are left out. Active and inactive are the calls of the source. The call rests on the fitted dose curve; in most records, active means well fitted cell-killing curve with a large enough effect; inconclusive means small, poorly fitted or top-dose-only effect, or effect the other way; inactive means flat fitted curve, though single readings scatter.
Use one of these outcomes when replying: t (active), f (inactive)

These recorded examples may help you get a feel for the data.
{"COMPOUND": "Nc1nc2c(nc(Br)n2[C@@H]2O[C@@H]3COP(=O)(O)O[C@H]3[C@H]2O)c(=O)[nH]1", "GROUP_LABEL": "f"}
{"COMPOUND": "Nc1nc(O)c(C2=C3C(=Nc4ccccc43)C(=O)NCC2)[nH]1", "GROUP_LABEL": "f"}
{"COMPOUND": "O=C(CSc1nc2ccccc2c(=O)n1-c1ccccc1)Nc1ccc2c(c1)CCC2", "GROUP_LABEL": "f"}
{"COMPOUND": "O=C(NCCN1CCN(c2cccc3ccc(O)cc23)CC1)c1ccc(F)cc1", "GROUP_LABEL": "f"}

Problem: How did this test come out for CC1=C2C[C@@]3(C)C(CCC[C@@H]3C)C(O)C2OC1=O (some centres undefined) ?
Result: f

Problem: Please let me know the test result on file for O=C(Nc1cccc([N+](=O)[O-])c1)c1cccc(S(=O)(=O)N2CCCCCC2)c1 .
Result: f

Problem: What did this assay record as the result for COc1cc2nc(C3CC3)nc(N3CCN(c4ccccc4OC)CC3)c2cc1OC ?
Result: f

Problem: Dear colleague, could you share the recorded outcome for CCOc1cn(-c2ccc(F)cc2C)nc1C(=O)Nc1ccc(Oc2ccnc3cc(OC)c(OC)cc23)c(F)c1 when you have a moment?
Result: f

Problem: Check the results log: what was the call for CN1CCN(Cc2ccc(NC(=O)Cc3ccc(Oc4cc(NC(=O)C5CC5)ncn4)cc3)cc2C(F)(F)F)CC1 ?
Result: t

====

- TESTED_ON: Glutathione peroxidase 1 (Homo sapiens)
- TEST: Primary qHTS Assay for Inhibitors of Recombinant Selenoprotein Glutathione Peroxidase 1 (GPX1) (AID 1845191); also: nearly all actives have a fitted effect of over 65% in size
- CONDITIONS: recombinant GPX1, GR-coupled NADPH fluorescence, 15 min; series mostly up to 48.8 µM
Inconclusive results are not listed. Active and inactive are the calls of the source. The call rests on the fitted dose curve; in most records, active means well fitted inhibition curve with a large enough effect; inconclusive means small, poorly fitted or top-dose-only effect; inactive means flat fitted curve, though single readings scatter.
ASSAY_READOUT: outcome

{"COMPOUND": "CCCc1cc(C)[nH]c(=O)c1CNC(=O)c1cc(-c2ccnc(N3CCN(C)CC3)c2)cc2c1cnn2C(C)C", "RESULT": "inactive"}
{"COMPOUND": "Cn1cc(C2=C(c3coc4ccccc34)C(=O)NC2=O)c2cc(Br)ccc21", "RESULT": "inactive"}
{"COMPOUND": "Cn1ncnc1[C@H]1c2n[nH]c(=O)c3cc(F)cc(c23)N[C@@H]1c1ccc(F)cc1", "RESULT": "inactive"}
{"COMPOUND": "Cc1onc(-c2ccccc2)c1C(=O)N1CCN(c2ccc([N+](=O)[O-])cc2Cl)CC1", "RESULT": "inactive"}
{"COMPOUND": "C=C[C@@]1(C)C=C2C(=O)C(O)=C3[C@](C)(C(=O)O)CC[C@@H]4C[C@]34[C@]2(O)C(=O)C1", "RESULT": "inactive"}
{"COMPOUND": "CCN(CC)C(=O)c1ccc(Nc2nc(OCC3CCCCC3)c3[nH]cnc3n2)cc1", "RESULT": "inactive"}
{"COMPOUND": "CN(C)C(=O)COC(=O)c1cc(-c2ccc(C3CCNCC3)cc2)c2ccc(-c3ccc(C(F)(F)F)cc3)cc2c1", "RESULT": "inactive"}
{"COMPOUND": "O=C(NCCN1CCOCC1)c1cc2c(Oc3ccc(NC(=O)C4(C(=O)Nc5ccc(F)cc5)CC4)cc3)ccnc2[nH]1", "RESULT": "inactive"}

Note: attention shifts to another entry.
Problem: Lab note: need outcome for CCCNCCc1ccc(NS(=O)(=O)c2ccc(OC(F)(F)F)cc2)cc1 on Glutathione peroxidase 1 (Homo sapiens), anyone have it?
Result: inactive
